- TARGET_OF_ASSAY: T1, recombinant human TfR-1, His-tagged (Sino Biological 11020-H07H) (human, UniProt P02786 89-760)
- T1 construct: bought; His-tagged; also called hTfR1; hTfR-1
- MEASUREMENT_NOTES: SPR, His-captured TfR1
pKd: −log10 of the molar value.
MEASURE: pKd

# example entries with known answers
{"BINDER": "Clone H VNAR-hFc fusion (Fc fusion, not shown: a dimerising Fc or GST, bivalent VNAR-Fc) ARVDQTPQTITKETGESLTINCVLRDSNCELSSTYWYRKKSGSTNEESISKGGRYVETVNSGSKSFSLRINDLVVEDSGTYRCNVQQFPSSSNGRYWCDVYGGGTAVTVNA", "pKd": 8.21}
{"BINDER": "Clone H variant 4 VNAR-hFc (Fc fusion, not shown: a dimerising Fc or GST) ARVDQTPQTITKETGESLTINCVLRDSNCELSSTYWYRKKSGSTNEESISKGGRYVETVNSGSKSFSLRINDLVVEDSGTYRCNVQQFPSRFNGRYWCDVYGGGTAVTVNA", "pKd": 7.80}

P = Clone H variant 2 VNAR-hFc (Fc fusion, not shown: a dimerising Fc or GST) ARVDQTPQTITKETGESLTINCVLRDSNCELSSTYWYRKKSGSTNEESISKGGRYVETVNSGSKSFSLRINDLVVEDSGTYRCNVQQFPSSWPFRYWCDVYGGGTAVTVNA
Q = Clone H variant 8 VNAR-hFc (Fc fusion, not shown: a dimerising Fc or GST) ARVDQTPQTITKETGESLTINCVLRDSNCELSSTYWYRKKSGSTNEESISKGGRYVETVNSGSKSFSLRINDLVVEDSGTYRCNVQQFPSRHNGRYWCDVYGGGTAVTVNA
Query: Which has the smaller recorded pKd, P or Q ? # reply format: chosen label
Result: Q
(Q: 7.60, P: 8.42)
